Protocol notes: Drug level in Plasmodium chabaudi infected Balb/c mouse brain at 10 mg/kg, ip at 24 hrs by LC-MS/MS analysis
Assay type: ADME, organism-based
Test conditions: read-out: Drug uptake
Outcome measure: concentration at 24 h (ng/mL)
Give the value, in units of ng/mL, as a plain number.

Record request: concentration at 24 h value, item O[C@@H](c1cc(C(F)(F)F)nc2c(C(F)(F)F)cccc12)[C@H]1CCCCN1 (racemic) [(S,R)-MEFLOQUINE] 1400

* * *

Protocol notes: Tmax in Plasmodium chabaudi infected Balb/c mouse plasma at 50 mg/kg, ip by LC-MS/MS analysis
Type: ADME, organism-based
Outcome measure: Tmax (min)
The answer is to be given in min; state only the numeric part.

Look at this compound and give its reported Tmax. O=C(O[C@H]1CCC[C@@]2(C1)OOC1(O2)C2CC3CC(C2)CC1C3)N1CCCC[C@@H]1[C@@H](O)c1cc(C(F)(F)F)nc2c(C(F)(F)F)cccc12 (stereo partly specified) 30
